assayed-system: T1, human interleukin 13 receptor subunit alpha 2 (IL-13RA2) (human, UniProt Q14627 27-380)
T1 sequence (looked up): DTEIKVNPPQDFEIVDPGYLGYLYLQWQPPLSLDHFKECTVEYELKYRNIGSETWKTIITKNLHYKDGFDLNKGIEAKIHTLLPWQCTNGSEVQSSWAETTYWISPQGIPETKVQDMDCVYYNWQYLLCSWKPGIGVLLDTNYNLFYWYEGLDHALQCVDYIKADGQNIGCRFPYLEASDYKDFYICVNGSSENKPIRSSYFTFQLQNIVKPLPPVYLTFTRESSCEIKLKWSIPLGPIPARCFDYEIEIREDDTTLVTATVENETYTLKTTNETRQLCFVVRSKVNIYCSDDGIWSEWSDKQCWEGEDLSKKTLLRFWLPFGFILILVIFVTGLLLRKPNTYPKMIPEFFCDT
assay-details: cell-based or functional assay
property-measured: internalization EC50 (pHAb dye), A375 cells (nM)
# output: bare number, implied unit nM

binder | number
xi24G6D5 hIgG1 (antibody, V domains shown) VH: QVQLQQSGPELVKPGTSVKMSCKASGYTFTSNYIHWVKQRPGQGLEWIGWIYPGDGSIKYNEKFKGKTTLTADKSSSTVYMLLSSLTSEDSAIYFCAVLRRLDYWGQGTTLTVSS VL: DIVLTQSPATLSVTPGDSVSLSCRASQSISNNLHWYQQKSHESPRLLIKYASQSISGIPSRFSGSGSGTDFTLSINSVETEDFGMYFCQQSNSWPLTFGAGTKLELK | 0.61

Consider the record given below.
Give me measured internalization EC50 (pHAb dye), A375 cells, please, for this binder: xi51G2B3 hIgG1 (antibody, V domains shown) VH: QVQLQQSGPELVKPGASVKISCKASGYAFSDSWMNWVKQRPGQGLEWIGRIYPGDGDTNYNGKFKGKATLTADKSSNTAYMQLSSLTSVDSAVYFCARSWNGSPWFPYWGQGTLVTVSA VL: DVLMTQTPLSLPVSLGDQASISCRSSQTIAHRNGNTYLEWYLQKPGQSPKLLLYKVSNRFSGVPDRFSGSGSGTDFTLKISRVEAEDLGVYYCFQGSHVTWTFGGGTKLEIK 1.32
